- system-name: Carbonic anhydrase 5B, mitochondrial (Homo sapiens, UniProt Q9Y2D0)
- Sequence (Q9Y2D0 whole entry): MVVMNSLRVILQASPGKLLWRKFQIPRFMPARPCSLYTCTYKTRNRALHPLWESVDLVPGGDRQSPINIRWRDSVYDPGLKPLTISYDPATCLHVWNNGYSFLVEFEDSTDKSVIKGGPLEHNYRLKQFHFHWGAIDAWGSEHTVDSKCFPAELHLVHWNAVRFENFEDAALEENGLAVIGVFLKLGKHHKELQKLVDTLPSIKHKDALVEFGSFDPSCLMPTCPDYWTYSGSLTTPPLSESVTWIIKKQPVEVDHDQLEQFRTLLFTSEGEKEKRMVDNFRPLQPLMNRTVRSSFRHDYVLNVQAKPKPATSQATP
- run-description: Binding affinity to recombinant full length N-terminal His6x-tagged human CA5B expressed in Escherichia coli Rosetta 2 (DE3) by DSF-based fluorescence thermal shift assay
Give measured Kd for each item. Keep answers brief.
One number for each entry, in nM.

Here's what some known entries look like.
Cc1cc(N2CC(C(=O)N/N=C/c3ccc([N+](=O)[O-])cc3)CC2=O)cc(C)c1S(N)(=O)=O (stereo not given)    400
COC(=O)C1CC(=O)N(c2cc(C)c(S(N)(=O)=O)c(C)c2Cl)C1 (stereo not given)    25
NS(=O)(=O)c1ccc(NC(=O)C2CC(=O)N(c3ccc(Br)cc3)C2)cc1 (stereo not given)    3800
COc1ccc(/C=N/NC(=O)C2CC(=O)N(c3cc(C)c(S(N)(=O)=O)c(C)c3Cl)C2)cc1 (stereo not given)    3.2
Cc1cc(N2CC(C(=O)O)CC2=O)cc(C)c1S(N)(=O)=O (stereo not given)    3300

Value sought for every listed molecule: Kd.
1. Cc1cc(N2CC(C(=O)NN)CC2=O)c(Cl)c(C)c1S(N)(=O)=O (stereo not given)
2. Cc1cc(N2CC(C(=O)NNC(=S)Nc3ccccc3)CC2=O)c(Cl)c(C)c1S(N)(=O)=O (stereo not given)
3. Cc1cc(S(N)(=O)=O)c(C)cc1N1CC(C(=O)NN)CC1=O (stereo not given)
4. Cc1cc(N2CC(C(=O)N/N=C/c3ccc(Cl)cc3)CC2=O)c(Cl)c(C)c1S(N)(=O)=O (stereo not given)
5. Cc1cc(N2CC(C(=O)N/N=C/c3ccccc3)CC2=O)cc(C)c1S(N)(=O)=O (stereo not given)
6. COC(=O)C1CC(=O)N(c2cc(C)c(S(N)(=O)=O)cc2C)C1 (stereo not given)
7. NS(=O)(=O)c1ccc(NC(=O)C2CC(=O)N(c3ccccc3)C2)cc1 (stereo not given)
8. NS(=O)(=O)c1ccc(N2CC(C(=O)O)CC2=O)cc1 (stereo not given)

OUT:
1. 140
2. 200
3. 660
4. 3.8
5. 710
6. 180
7. 550
8. 4700

Value sought for every listed molecule: Kd.
1. Cc1cc(N2CC(C(=O)NNC(=S)Nc3ccccc3)CC2=O)cc(C)c1S(N)(=O)=O (stereo not given)
2. Cc1cc(N2CC(C(=O)N/N=C/c3ccc(Br)cc3)CC2=O)c(Cl)c(C)c1S(N)(=O)=O (stereo not given)

OUT:
[770, 7.7]

IN: Need Kd of Cc1cc(N2CC(C(=O)NN)CC2=O)cc(C)c1S(N)(=O)=O (stereo not given) , thanks.
OUT: 1400

###

Give measured pKd for each item. Keep answers brief.
- system-name: UniProt P00918
- run-description: Binding affinity to recombinant human CA2 by DSF-based fluorescence thermal shift assay
Answers are plain numbers, as −log10 of the molar value.

Here's what some known entries look like.
Cc1cc(S(N)(=O)=O)c(C)cc1N1CC(C(=O)NN)CC1=O (stereo not given)    5.09
Cc1cc(S(N)(=O)=O)c(C)cc1N1CC(C(=O)N/N=C/c2ccc([N+](=O)[O-])cc2)CC1=O (stereo not given)    5.68
Cc1cc(C)n(NC(=O)C2CC(=O)N(c3cc(C)c(S(N)(=O)=O)c(C)c3Cl)C2)n1 (stereo not given)    7.70
Cc1cc(N2CC(C(=O)NNC(=S)Nc3ccccc3)CC2=O)cc(C)c1S(N)(=O)=O (stereo not given)    5.96

IN: Need pKd of Cc1cc(N2CC(C(=O)O)CC2=O)c(Cl)c(C)c1S(N)(=O)=O (stereo not given) , thanks.
OUT: 6.66
